MEASUREMENT_NOTES: SK-BR-3 cell growth inhibitors, pilot screen, 24 h, human (AID 572);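 also: compound exposure lasted between 18 and 24 h rather than exactly 24 h; 100% = carrier-treated control wells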
EXPERIMENTAL_PARAMETERS: SK-BR-3 viability, CellTiter-Glo luminescence, at 10 µM, stronger effect = lower value
ENDPOINT_NAME: viability (%)
I only need the number, in %, no unit after it.

Look up viability for this compound: "Cc1sc2ncn3ncnc3c2c1C"
91

* * *

Overview of recorded inhibition for various compounds
MEASUREMENT_NOTES: 384-well plate pilot, post-Golgi transport modulator project, inhibition of yeast transport mutant growth (AID 636)
EXPERIMENTAL_PARAMETERS: absorbance 615 nm, about 18 h, stronger effect = higher value
Quick reminder: number only, in %, skip the unit.

These recorded examples may help you get a feel for the data.
* CN(C(=O)c1ccccc1Cl)c1ccccc1 | -8.63
* Cc1cc(C)cc(NS(=O)(=O)c2ccc3[nH]c(=O)[nH]c3c2)c1 | -2.21
* COC(=O)c1ccccc1S(=O)(=O)NC(=O)c1ccccc1 | -1.82
* Cc1c(CCC#N)c(N2CCN(C3CCCCC3)CC2)n2c(nc3ccccc32)c1C#N | -5.48
* O=C(Nc1ccc2c(c1)OCO2)c1nn(-c2ccccc2)c(=O)c2ccccc12 | -1.43

Need inhibition, item "CC(C)N(C(=O)CSc1nnc(NC(=O)C2CCC2)s1)C(C)C"
-1.47

Can you look up the measured inhibition of "Nc1ccc(-c2ccc(N)cc2C(F)(F)F)c(C(F)(F)F)c1" for me?
-0.65

Quick check: inhibition of "c1ccc(-n2ncc3c(N4CCCCC4)ncnc32)cc1" ?
-3.6

Quick one: inhibition of "O=C(NCc1cccnc1)c1ccccc1Br" ?
-5.87

Tell me the measured inhibition of "CCOC(=O)CNC(=O)c1c(C)nn(-c2ccccc2)c1Cl" , please.
-2.63

Consider the compound "Cc1oc(C(=O)O)cc1CSCc1cc(C(=O)O)c(C)o1" and give its measured inhibition.
-3.51

Fill in the blank: the reported inhibition of "CC(C)CNS(=O)(=O)c1ccc(CCC(=O)N2CCOCC2)cc1" is ____.
-4.73

The reported measurements were obtained from PubChem BioAssay.
